src = the supplement of paper PMC4466140

# Test target: CaHse1
# Experiment notes: SPOT peptide array binding signal intensity (averaged, normalized) (arbitrary units (background-subtracted, floor 0; scale differs between SH3 domains)); higher = stronger binding of the SH3 domain to the peptide
# label = criterion met if SPOT peptide array binding signal intensity >= 10 else criterion not met

[
  {
    "Binder": "VDFTLPPPPPPPGLD",
    "Class assignment": "criterion not met"
  },
  {
    "Binder": "PELAPKREAPKPPAN",
    "Class assignment": "criterion not met"
  },
  {
    "Binder": "RTIRKLPLMSLSEYF",
    "Class assignment": "criterion met"
  },
  {
    "Binder": "KNRKNLPTIPIRLSG",
    "Class assignment": "criterion met"
  },
  {
    "Binder": "KIRRSSLMIPNPQQF",
    "Class assignment": "criterion met"
  },
  {
    "Binder": "FSRRQSMDIPSKNRN",
    "Class assignment": "criterion met"
  },
  {
    "Binder": "KRKRRLPVSEDTNTK",
    "Class assignment": "criterion met"
  },
  {
    "Binder": "YLTRPLPSTPNEDSR",
    "Class assignment": "criterion met"
  },
  {
    "Binder": "RNNRPVPPPPPMRTT",
    "Class assignment": "criterion not met"
  },
  {
    "Binder": "PKRRAPPPVPKKPSS",
    "Class assignment": "criterion met"
  },
  {
    "Binder": "SGVRLPAPPPPPRRG",
    "Class assignment": "criterion met"
  },
  {
    "Binder": "RRGPAPPPPPRASRP",
    "Class assignment": "criterion not met"
  },
  {
    "Binder": "VPKEPAPAPPPEPDM",
    "Class assignment": "criterion not met"
  },
  {
    "Binder": "TIRRRAPLSLLESHT",
    "Class assignment": "criterion met"
  },
  {
    "Binder": "FIRKRAPTPPAPSRS",
    "Class assignment": "criterion met"
  }
]
